assay: Inhibition of Trypanosoma cruzi recombinant Trans-sialidase; conditions: read-out: I50
pIC50: −log10 of the molar value.
experimentalReadout: pIC50

>>> df
                linenotation  numericvalue
0  CC(=O)Nc1ccc(C(=O)O)cc1CO          3.27

P. Nc1cc(C(=O)O)ccc1NC(=O)Cc1ccccc1
Q. CC(=O)Nc1ccc(C(=O)O)nc1N
Two entries are listed, P and Q . Which one carries the higher pIC50? Which one? Tell me its label. Q

* * *

tested on: Trypanosoma cruzi; details: at 1 mM
Description: Inhibition of Trypanosoma cruzi recombinant Trans-sialidase at 1 mM
experimentalReadout: inhibition (%)

>>> df
                                   compound  numericvalue
0  CC(=O)Nc1ccc(C(=O)O)cc1CC(O)CO (stereo in doubt; 31)            17
1  CC(=O)Nc1ccc(C(=O)O)cc1CC(O)CO (stereo in doubt; 32)             0
2               CS(=O)(=O)Nc1ccc(C(=O)O)nc1            25
3       CC(=O)Nc1c(CCO)cc(C(=O)O)cc1N=C(N)N             0

I. CC(=O)Nc1cnc(C(=O)O)cc1N
II. CS(=O)(=O)Nc1c(/C=N/O)cc(C(=O)O)cc1N=C(N)N
III. O=C(CN1CCOCC1)Nc1ccc(C(=O)O)cc1
Hello, I need these entries ordered by inhibition, highest reading first. Thanks! Return value: ordered labels per request. II, I, III

* * *

test: Inhibition of Trypanosoma cruzi recombinant Trans-sialidase; conditions: read-out: I50
experimentalReadout: IC50 (µM)

The examples below pair each entry with its known result.
                      linenotation  experimentalreadout  numericvalue
0      Nc1cc(C(=O)O)ccc1NCc1cccnc1                 IC50           740
1   CNC(=O)c1ccc(C(=O)O)cc1NC(=N)N                 IC50           760
2      Nc1cc(C(=O)O)ccc1SCc1ccccc1                 IC50           700
3  CC(=O)Nc1cc(C(=O)O)ccc1N1CCOCC1                 IC50           580

A. CC(=S)Nc1ccc(C(=O)O)nc1
B. NCC(=O)Nc1cc(C(=O)O)ccc1SCc1ccccc1
# min-compare on IC50 between A and B Record your answer as the label of the chosen record. A

* * *

tested on: Trypanosoma cruzi; conditions: at 1 mM;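 further: measured against recombinant trans-sialidase from Trypanosoma cruzi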
experimentalReadout: inhibition (%)

Example entries and their recorded answers appear below.
In [3]: df
Out[3]:
                                   molecule  numericvalue
0                   CC(=O)Nc1ccc(C(=O)O)cc1             0
1                CC(=O)Nc1ccc(C(=O)O)cc1CCN            25
2  C[S+]([O-])Nc1ccc(C(=O)O)cc1N=C(N)N (configuration not stated)            29

1. CS(=O)(=O)Nc1ccc(C(=O)O)cc1C(O)CN (configuration not stated)
2. CC(=O)Nc1ccc(C(=O)O)cc1CC(N)=O
Which one would you say has the larger inhibition value: 1 , or 2 ? Respond with the label that goes with your answer. 1
(1: 17%, 2: 0%)

P. CC(=O)Nc1ccc(C(=O)O)nc1
Q. NC(N)=Nc1cc(C(=O)O)cc(CCO)c1N
R. CS(=O)(=O)Nc1c(CO)cc(C(=O)O)cc1N=C(N)N
Task field, ranking: reported inhibition, descending order. When ranking, write the labels in the order the request describes. P, R, Q
